MEASUREMENT_DESCRIPTION: Confirmatory screen GU Rhodamine qHTS for Zika virus inhibitors qHTS (AID 1347157); note: nearly all actives have a fitted effect of over 70% in size
CONDITION_LABEL: purified enzyme assay, Rhodamine110 substrate fluorescence, 15 min; series mostly up to 114 µM
From the text: Avindra Nath, Ph.D., National Institute of Neurological Disorders and Stroke (NINDS), Bethesda, MD Radhakrishnan Padmanabhan, Ph.D., Georgetown University (GU), Washington D.C. Zika Virus causes congenital defects, including microcephaly and is associated with Guillain-Barre syndrome, eningoencephalitis and myelitis in infected adult. […]
Records with an inconclusive call do not appear. Activity calls are given as the source filed them. Calls come from the whole dose curve; as a rule, active = well fitted inhibition curve with a large enough effect; inconclusive = small, poorly fitted or top-dose-only effect; inactive = flat fitted curve, though single readings scatter.
Hi! Could you answer with just one of these? true (1) for active, false (0) for inactive

Q. Give the logged outcome of this assay for the following compound: `O=C(OCC#CCSc1nnc(-c2cccc3ccccc23)o1)c1ccc(OC(F)F)cc1`
A. false (0)

Q. Give the logged outcome of this assay for the following compound: `O=C(COc1ccccc1F)Nc1ccc(C(=O)OCc2cc(=O)n3nc(C4CC4)sc3n2)cc1`
A. false (0)

Q. Give the logged outcome of this assay for the following compound: `CCOc1ccccc1NC(=O)c1ccc2oc(=O)c(S(=O)(=O)c3ccc(F)cc3)cc2c1`
A. false (0)

Q. Give the logged outcome of this assay for the following compound: `CCCc1nn2c(=O)cc(COC(=O)c3ccccc3NC(=O)c3ccc(Cl)cc3)nc2s1`
A. false (0)

Q. Give the logged outcome of this assay for the following compound: `O=C(O)c1ccc(O)c2ncc(N3CCCN(CCc4cccc5ccccc45)CC3)cc12`
A. true (1)

Q. Give the logged outcome of this assay for the following compound: `Cc1c(Cl)cccc1NC(=O)CSc1ncccc1C(=O)Oc1ccccc1Cl`
A. false (0)

Q. Give the logged outcome of this assay for the following compound: CC(NC(=O)C1CCN(S(=O)(=O)c2ccc3nc4c(c(C(=O)O)c3c2)CCCC4)CC1)c1ccccc1 (centres undefined)
A. false (0)

Q. Give the logged outcome of this assay for the following compound: `O=C(Nc1c(C(=O)O)oc2ccccc12)c1ccc(C(F)(F)F)cc1`
A. true (1)

Q. Give the logged outcome of this assay for the following compound: `CCCCOC(=O)c1ccc(NC(=O)c2ccc3c(c2)CCN3S(=O)(=O)c2ccccc2)cc1`
A. false (0)

Data credit: PubChem BioAssay (NCATS)
